tested on: Escherichia coli ATCC 25922; experiment: 50% growth inhibitory concentration (IC50) determination, Iso-Sensitest broth dilution; type: cell-based; settings: strain Escherichia coli ATCC 25922; 10-point broth dilution, optical density at 600 nm over 16 h; read-out: Escherichia coli growth inhibition IC50
Measured pIC50 accompanies every entry in the list below.
pIC50 (log units): -log10 of the concentration in mol/L.

>  <MOLECULE>
O=C1COc2ncc(N3CC(CC(O)CNC4Cc5cccc(F)c5C4)OC3=O)nc2N1 (single isomer, unassigned; isomer b) [Example 84]

>  <pIC50>
6.66

$$$$

Exercise: Data request, read-out pIC50, for N#Cc1cccc2c1CC(CNC1CCC3C(C1)OC(=O)N3c1ccc3c(n1)NC(=O)CO3)C2 (racemic) [Example 99]
Key: 6.29

Exercise: Data request, read-out pIC50, for Cc1ncc(F)c2c1CC(NC1CC(C3CN(c4cnc5c(n4)NC(=O)CO5)C(=O)O3)C1)C2 (single isomer, unassigned; isomer b)
Key: 6.34

Exercise: Data request, read-out pIC50, for N#Cc1cccc2c1CC(NC1CCC3(CN(c4ccc5c(n4)NC(=O)CO5)C(=O)O3)C(N)C1)C2 (racemic) [Example 166]
Key: 6.76

Exercise: Data request, read-out pIC50, for N#Cc1cccc2c1CC(NCC(O)CC1CN(c3cnc4c(n3)NC(=O)CO4)C(=O)O1)C2 (single isomer, unassigned; isomer b)
Key: 6.82

---

tested on: Escherichia coli ATCC 25922; test: 50% growth inhibitory concentration (IC50) determination, Iso-Sensitest broth dilution; assay type: cell-based; settings: strain Escherichia coli ATCC 25922; 10-point broth dilution, optical density at 600 nm over 16 h; read-out: Escherichia coli growth inhibition IC50
// returns FALSE unless IC50 is strictly below 200 nM, in which case TRUE

Exercise: Is it true that IC50 reported for O=C1COc2ccc(N3CC(CCNCC4Cc5c(Cl)cccc5C4O)OC3=O)nc2N1 (racemic) is less than 200 nM?
Key: TRUE

---

test system: Escherichia coli ATCC 25922; experiment: 50% growth inhibitory concentration (IC50) determination, Iso-Sensitest broth dilution; assay type: cell-based; settings: strain Escherichia coli ATCC 25922; 10-point broth dilution, optical density at 600 nm over 16 h; read-out: Escherichia coli growth inhibition IC50
Measured pIC50 accompanies every entry in the list below.
pIC50 (log units): -log10 of the concentration in mol/L.

Exercise: Data request, read-out pIC50, for Cc1ncc(F)c2c1CC(NCC(O)CC1CN(c3cnc4c(n3)NC(=O)CO4)C(=O)O1)C2 (single isomer, unassigned; isomer d) [Example 316]
Key: 6.02

Exercise: Data request, read-out pIC50, for Cc1ncc(F)c2c1CC(CN1CCC3(CN(c4ccc5c(n4)NC(=O)CO5)C(=O)O3)C(CN)C1)C2 (racemic) [Example 250]
Key: 6.54

---

system: Escherichia coli ATCC 25922; assay: 50% growth inhibitory concentration (IC50) determination, Iso-Sensitest broth dilution; format: cell-based; settings: strain Escherichia coli ATCC 25922; 10-point broth dilution, optical density at 600 nm over 16 h; read-out: Escherichia coli growth inhibition IC50
MEASURED_METRIC: IC50 (µM)
Supply the numeric figure in µM, leaving out any unit text.

>  <MOLECULE>
N#Cc1cccc2c1CC(NC1CCC3(CN(c4ccc5c(n4)NC(=O)CO5)C(=O)O3)C(N)C1)C2 (racemic) [Example 241]

>  <SYSTEM_TESTED>
Escherichia coli ATCC 25922

>  <UNIT>
µM

>  <VALUE_REPORTED>
0.509

$$$$

Exercise: Data request, read-out IC50, for N#Cc1cccc2c1CC(CN1CCC3(CN(c4ccc5c(n4)NC(=O)CO5)C(=O)O3)C(CN)C1)C2 (racemic) [Example 252]
Key: 0.156

Exercise: Data request, read-out IC50, for N#Cc1cccc2c1CC(CNC1CCC3C(C1)OC(=O)N3c1ccc3c(n1)NC(=O)CO3)C2 (racemic) [Example 31]
Key: 0.156

---

Measured IC50 accompanies every entry in the list below.
system: Escherichia coli ATCC 25922; test: 50% growth inhibitory concentration (IC50) determination, Iso-Sensitest broth dilution; format: cell-based; conditions: strain Escherichia coli ATCC 25922; 10-point broth dilution, optical density at 600 nm over 16 h; read-out: Escherichia coli growth inhibition IC50
Supply the numeric figure in nM, leaving out any unit text.

# count of solved cases: 2
>  <COMPOUND>
Cc1ncc(F)c2c1CC(NC(C)CCC1CN(c3cnc4c(n3)NC(=O)CO4)C(=O)O1)C2 (single isomer, unassigned; isomer b)

>  <VALUE_REPORTED>
321

$$$$
>  <COMPOUND>
Cc1ncc(F)c2c1CC(CN1CCC3(CN(c4ccc5c(n4)NC(=O)CO5)C(=O)O3)C(CN)C1)C2 (racemic) [Example 251]

>  <VALUE_REPORTED>
679

$$$$

Exercise: State its IC50 on Escherichia coli ATCC 25922: N#Cc1cccc2c1CC(NC1CCC3(CC1)CN(c1ccc4c(n1)NC(=O)CO4)C(=O)O3)C2 (single isomer, unassigned; isomer a) [Example 39]
Key: 737

Exercise: State its IC50 on Escherichia coli ATCC 25922: N#Cc1cccc2c1CC(CNCCC1OC(=O)N(c3ccc4c(n3)NC(=O)CO4)C1CN)C2 (racemic)
Key: 904

Exercise: State its IC50 on Escherichia coli ATCC 25922: NC(=O)COc1cc(F)c2c(c1)CC(CNCC[C@@H]1CN(c3cnc4c(n3)NC(=O)CO4)C(=O)O1)C2 (single isomer, unassigned; isomer b)
Key: 158

Exercise: State its IC50 on Escherichia coli ATCC 25922: Cc1nccc2c1CC(NCCCc1cn(-c3cnc4c(n3)NC(=O)CO4)c(=O)o1)C2 (single isomer, unassigned; enantiomer b)
Key: 195

Exercise: State its IC50 on Escherichia coli ATCC 25922: N#Cc1cccc2c1CC(NC1CCC3(CC1)CN(c1ccc4c(n1)NC(=O)CO4)C(=O)O3)C2 (single isomer, unassigned; isomer b) [Example 40]
Key: 153

Exercise: State its IC50 on Escherichia coli ATCC 25922: Cc1ncc(F)c2c1CC(NCC(O)CC1CN(c3cnc4c(n3)NC(=O)CO4)C(=O)O1)C2 (single isomer, unassigned; isomer b) [Example 314]
Key: 1180

---

tested on: Escherichia coli ATCC 25922; experiment: 50% growth inhibitory concentration (IC50) determination, Iso-Sensitest broth dilution; assay type: cell-based; settings: strain Escherichia coli ATCC 25922; 10-point broth dilution, optical density at 600 nm over 16 h; read-out: Escherichia coli growth inhibition IC50
pIC50: −log10 of the molar value.
MEASURED_METRIC: pIC50

# count of solved cases: 2
>  <COMPOUND>
CC(C)(N)COc1cc(F)c2c(c1)CC(CN1CCC3(CC1)CN(c1cnc4c(n1)NC(=O)CO4)C(=O)O3)C2 (single isomer, unassigned; enantiomer b)

>  <pIC50>
> 7.01

$$$$
>  <COMPOUND>
Cc1ncc(C#N)c2c1CC(NCCCc1cn(-c3cnc4c(n3)NC(=O)CO4)c(=O)o1)C2 (single isomer, unassigned; enantiomer b)

>  <pIC50>
> 7.01

$$$$

Attention now turns to another entry.
Exercise: Data request, read-out pIC50, for NC(=O)COc1cc(F)c2c(c1)CC(CNCC[C@H]1CN(c3cnc4c(n3)NC(=O)CO4)C(=O)O1)C2 (single isomer, unassigned; isomer b)
Key: > 7.01
